study.system: Lactoylglutathione lyase (Homo sapiens, UniProt Q04760)
Sequence (Q04760 whole entry): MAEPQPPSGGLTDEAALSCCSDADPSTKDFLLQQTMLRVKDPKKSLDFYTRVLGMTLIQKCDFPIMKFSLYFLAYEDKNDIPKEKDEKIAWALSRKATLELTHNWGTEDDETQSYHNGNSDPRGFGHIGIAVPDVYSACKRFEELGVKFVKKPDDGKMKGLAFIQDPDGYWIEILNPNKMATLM
endpoint.label: Ki (nM)

CCCCCCCN(O)C(=O)SC[C@H](NC(=O)CC[C@H](N)C(=O)O)C(=O)NCC(=O)O	18
CN(O)C(=O)SC[C@H](NC(=O)CC[C@H](N)C(=O)O)C(=O)NCC(=O)O	1700

I: CCCCN(O)C(=O)SC[C@H](NC(=O)CC[C@H](N)C(=O)O)C(=O)NCC(=O)O
II: CCN(O)C(=O)SC[C@H](NC(=O)CC[C@H](N)C(=O)O)C(=O)NCC(=O)O
Sort I and II by Ki descending and give the first. Reply briefly: the label of your chosen item.
II
(II: 1180 nM, I: 180 nM)

Each recorded value in this set is attributed to ChEMBL document CHEMBL1133474.
